- ASSAY_TEXT: Antiproliferative activity against human DND1 cells
- Type: functional, cell-based
QUANTITY_KIND: IC50 (nM)
Quick reminder: number only, in nM, skip the unit.

Please review the following examples before continuing.
>  <MOLECULE>
COc1cc(C(=O)c2ccc3c(ccn3C)c2)cc(OC)c1OC

>  <QUANTITY_KIND>
IC50

>  <QUANTITY_UNIT>
nM

>  <READING>
15

$$$$
>  <MOLECULE>
COc1cc([C@@H]2c3cc4c(cc3C(O)[C@H]3COC(=O)[C@H]23)OCO4)cc(OC)c1OC (single isomer, unassigned) [PODOFILOX]

>  <QUANTITY_KIND>
IC50

>  <QUANTITY_UNIT>
nM

>  <READING>
12

$$$$

Could you share which IC50 value was measured for CCn1c2ccccc2c2cc(C(=O)c3cc(OC)c(OC)c(OC)c3)ccc21 ?
21

Could you do the same for COc1ccc(/C=C\c2cc(OC)c(OC)c(OC)c2)cc1O [COMBRETASTATIN A4] , please?
2.5

Could you do the same for COc1ccc(C(=O)c2ccc3c(ccn3C)c2)c(OC)c1 , please?
118

Could you do the same for COc1cc(C(=O)c2ccc3ccn(C)c3c2)cc(OC)c1OC , please?
27

Could you do the same for CCn1c2ccccc2c2cc(NS(=O)(=O)c3cc(OC)c(OC)c(OC)c3)ccc21 , please?
89

Could you do the same for COc1cc(C(O)c2ccc3c(ccn3C)c2)cc(OC)c1OC (stereo not drawn) , please?
59
